Molecular target: recombinant PRL-3 (Homo sapiens, UniProt O75365)
Construct: 6xHis (N, cleaved yes); made in house; host or cells: E. coli One Shot BL21 Star
Sequence (O75365 whole entry): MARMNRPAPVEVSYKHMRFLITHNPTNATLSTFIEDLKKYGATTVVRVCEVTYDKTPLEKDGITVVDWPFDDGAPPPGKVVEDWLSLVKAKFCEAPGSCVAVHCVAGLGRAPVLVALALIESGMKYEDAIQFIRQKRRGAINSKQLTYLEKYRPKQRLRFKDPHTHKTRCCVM
Assay: In vitro phosphatase assay (DiFMUP hydrolysis), PRL-3
Assay type: biochemical
Details: FDA-approved drug screen; compared to DMSO
Counter-ions that a name gives are not always drawn.
% Phosphatase Activity (compared to DMSO) PRL-3 of 90% or higher: fulfilled. Under 90%: not fulfilled.

Study these solved cases before continuing.
molecule="C[C@H]1[C@H](NC(=O)/C(=N\\OC(C)(C)C(=O)O)c2csc(N)n2)C(=O)N1S(=O)(=O)O [Aztreonam]" system_tested="recombinant PRL-3 (Homo sapiens, UniProt O75365)" assigned_category="not fulfilled"
molecule="O=c1ccc2ccccc2o1 [Coumarin]" system_tested="recombinant PRL-3 (Homo sapiens, UniProt O75365)" assigned_category="not fulfilled"
molecule="COc1ccccc1OCC(O)COC(N)=O (stereo not drawn) [Methocarbamol]" system_tested="recombinant PRL-3 (Homo sapiens, UniProt O75365)" assigned_category=fulfilled
molecule="Nc1c(CC(=O)O)cccc1C(=O)c1ccc(Br)cc1 [Bromfenac Sodium]" system_tested="recombinant PRL-3 (Homo sapiens, UniProt O75365)" assigned_category="not fulfilled"
molecule="CNC(=C[N+](=O)[O-])NCCSCc1ccc(CN(C)C)o1 [Ranitidine]" system_tested="recombinant PRL-3 (Homo sapiens, UniProt O75365)" assigned_category=fulfilled

input: Given the entry CN1CCOC(c2ccccc2)c2ccccc2C1 (stereo not drawn) [Nefopam HCl] , answer whether its % Phosphatase Activity (compared to DMSO) PRL-3 meets or surpasses 90%.
output: fulfilled

input: Given the entry COc1ccc2[nH]cc(CCNC(C)=O)c2c1 [Melatonin] , answer whether its % Phosphatase Activity (compared to DMSO) PRL-3 meets or surpasses 90%.
output: not fulfilled

----------
Target: recombinant PRL-2 (Homo sapiens, UniProt Q12974)
Construct: 6xHis (N, cleaved yes); made in house; host or cells: E. coli One Shot BL21 Star
Sequence (Q12974 1-167): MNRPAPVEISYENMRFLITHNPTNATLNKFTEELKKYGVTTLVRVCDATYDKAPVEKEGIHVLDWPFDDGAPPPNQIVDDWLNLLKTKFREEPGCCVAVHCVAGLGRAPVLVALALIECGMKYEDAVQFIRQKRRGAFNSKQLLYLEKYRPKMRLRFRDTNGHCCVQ
Experiment: In vitro phosphatase assay (DiFMUP hydrolysis), PRL-2;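 further: PRL-2 activity read as DiFMUP hydrolysis after 20 min at room temperature with drug, enzyme first pre-reduced at 4 °C for 20 min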
Format: biochemical
Conditions: FDA-approved drug screen; activity compared to DMSO
Reported % Phosphatase Activity (compared to DMSO) PRL-2 values follow for various compounds
Give the quantity in %, number only.

compound=CCS(=O)(=O)CCn1c([N+](=O)[O-])cnc1C experimental_value=113
compound=CNC(=O)c1ccc2cc([C@@]3(O)CCn4cncc43)ccc2c1 experimental_value=107

input: Which % Phosphatase Activity (compared to DMSO) PRL-2 value belongs to C=C[C@]1(C)C[C@@H](OC(=O)CSC(C)(C)CNC(=O)[C@H](N)C(C)C)[C@]2(C)[C@H](C)CC[C@]3(CCC(=O)[C@H]32)[C@@H](C)[C@@H]1O.Cl [Valnemulin HCl] ?
output: 95

input: Which % Phosphatase Activity (compared to DMSO) PRL-2 value belongs to CS(=O)(=O)c1ccc([C@@H](O)[C@@H](CO)NC(=O)C(Cl)Cl)cc1 ?
output: 125
